system: SUP-M2 cells; experiment: CellTiter-Glo 2.0 cell viability assay, SUP-M2; format: cell-based; conditions: SUP-M2, 96 h, 4 days
pIC50: −log10 of the molar value.
Documented pIC50 across a set of compounds
measured parameter: pIC50

compound	tested target	measured parameter	obs value
CCS(=O)(=O)c1ccc(CNC(=O)[C@H](CCC(N)=O)NC(=O)[C@@H]2CC[C@@H]3CCN(C(=O)CCCCc4cn([C@H](C(=O)N5C[C@H](O)C[C@H]5C(=O)N[C@@H](C)c5ccc(-c6scnc6C)cc5)C(C)(C)C)nn4)C[C@H](NC(=O)c4cc5cc(C(=O)P(=O)(O)O)ccc5[nH]4)C(=O)N32)cc1	SUP-M2 cells	pIC50	> 8.00
CC(=O)N1CC[C@H]2CC[C@@H](C(=O)N[C@@H](CCC(N)=O)COc3cccc(CCCC(=O)N4CCC([C@@H](C(=O)N5C[C@H](O)C[C@H]5C(=O)N[C@@H](C)c5ccc(-c6scnc6C)cc5)n5cc(C6CC6)nn5)CC4)c3Cl)N2C(=O)[C@@H](NC(=O)c2cc3cc(C(=O)P(=O)(O)O)ccc3[nH]2)C1	SUP-M2 cells	pIC50	7.00 to 8.00
Cc1ncsc1-c1ccc([C@H](C)NC(=O)[C@@H]2C[C@@H](O)CN2C(=O)[C@@H](n2cc(CCCCCCCCC(=O)N3CC[C@H]4CC[C@@H](C(=O)N[C@@H](CCC(N)=O)C(=O)NC(c5ccccc5)c5ccccc5)N4C(=O)[C@@H](NC(=O)c4cc5cc(C(=O)P(=O)(O)O)ccc5[nH]4)C3)nn2)C(C)(C)C)cc1	SUP-M2 cells	pIC50	< 6.00

Recorded values, source patent US20260226086A1.
